- TEST SUMMARY: RP-TLC chromatographic parameter of lipophilicity (RMW), Soczewiński–Wachtmeister extrapolation
- Assay type: physicochemical
- Set-up: key: RM = log((1−Rf)/Rf), extrapolated via Soczewiński–Wachtmeister equation
- TEST CONDITIONS: RP-18F254 plates, acetonitrile–TRIS buffer (pH 7.4)
Assign T whenever RMW does not fall below -0.8; assign F whenever it does.

OCCN1CCN(CC/C=C2/c3ccccc3Sc3ccc(C(F)(F)F)cc32)CC1 ... F
OCCN1CCN(CC/C=C2/c3ccccc3Sc3ccc(Cl)cc32)CC1 ... T
CN(C)CCCN1c2ccccc2Sc2ccc(C(F)(F)F)cc21 ... T

Now let's try a different one.
## Input Reported RMW at or above -0.8? OCCN1CCN(CCCN2c3ccccc3Sc3ccc(C(F)(F)F)cc32)CC1
## Output F

###

- TEST SUMMARY: RP-TLC chromatographic parameter of lipophilicity (RMW), Soczewiński–Wachtmeister extrapolation
- Format: physicochemical
- Set-up: key: RM = log((1−Rf)/Rf), extrapolated via Soczewiński–Wachtmeister equation
- TEST CONDITIONS: RP-18F254 plates, 1,4-dioxane–TRIS buffer (pH 7.4)
Assignment: determine reported RMW for the given compounds.
One number for each entry.

Solved entries (count: 3):
OCCN1CCN(CC/C=C2/c3ccccc3Sc3ccc(C(F)(F)F)cc32)CC1 ... 2.468
OCCN1CCN(CC/C=C2/c3ccccc3Sc3ccc(Cl)cc32)CC1 ... 2.110
CN(C)CCCN1c2ccccc2Sc2ccc(C(F)(F)F)cc21 ... 2.342

Dear reader, for each entry below, please note its RMW.
1. OCCN1CCN(CCCN2c3ccccc3Sc3ccc(C(F)(F)F)cc32)CC1
2. CN1CCN(CCCN2c3ccccc3Sc3ccc(C(F)(F)F)cc32)CC1

## Output
1: 2.454; 2: 2.580

###

- TEST SUMMARY: RP-TLC chromatographic parameter of lipophilicity (RMW), Soczewiński–Wachtmeister extrapolation
- Assay type: physicochemical
- Design: key: RM = log((1−Rf)/Rf), extrapolated via Soczewiński–Wachtmeister equation
- TEST CONDITIONS: RP-2F254 plates, 1,4-dioxane–TRIS buffer (pH 7.4)
ASSAY ENDPOINT: RMW
Answers are plain numbers.

Known RMW results, listed for orientation:
CN(C)CCCN1c2ccccc2Sc2ccc(C(F)(F)F)cc21 ... 2.890
OCCN1CCN(CC/C=C2/c3ccccc3Sc3ccc(Cl)cc32)CC1 ... 2.459
OCCN1CCN(CC/C=C2/c3ccccc3Sc3ccc(C(F)(F)F)cc32)CC1 ... 2.782
OCCN1CCN(CCCN2c3ccccc3Sc3ccc(C(F)(F)F)cc32)CC1 ... 2.653

Continue with the molecule presented below.
So for CN1CCN(CCCN2c3ccccc3Sc3ccc(C(F)(F)F)cc32)CC1 , the logged RMW turned out to be 3.333

###

- TEST SUMMARY: RP-TLC chromatographic parameter of lipophilicity (RMW), Soczewiński–Wachtmeister extrapolation
- Format: physicochemical
- Design: key: RM = log((1−Rf)/Rf), extrapolated via Soczewiński–Wachtmeister equation
- TEST CONDITIONS: RP-2F254 plates, acetone–TRIS buffer (pH 7.4)
ASSAY ENDPOINT: RMW
One number for each entry.

# example entries with known answers
OCCN1CCN(CCCN2c3ccccc3Sc3ccc(C(F)(F)F)cc32)CC1 ... 2.834
OCCN1CCN(CC/C=C2/c3ccccc3Sc3ccc(C(F)(F)F)cc32)CC1 ... 2.829
OCCN1CCN(CC/C=C2/c3ccccc3Sc3ccc(Cl)cc32)CC1 ... 2.529
CN(C)CCCN1c2ccccc2Sc2ccc(C(F)(F)F)cc21 ... 3.046

The recorded RMW for entry CN1CCN(CCCN2c3ccccc3Sc3ccc(C(F)(F)F)cc32)CC1 equals 3.348

###

- TEST SUMMARY: RP-TLC chromatographic parameter of lipophilicity (RMW), Soczewiński–Wachtmeister extrapolation
- Type: physicochemical
- Parameters: key: RM = log((1−Rf)/Rf), extrapolated via Soczewiński–Wachtmeister equation
- TEST CONDITIONS: RP-2F254 plates, acetonitrile–TRIS buffer (pH 7.4)
// returns false (0) unless RMW is strictly below -0.4, in which case true (1)

OCCN1CCN(CCCN2c3ccccc3Sc3ccc(C(F)(F)F)cc32)CC1 [Fluphenazine, fluphenazine] ... true (1)
CN1CCN(CCCN2c3ccccc3Sc3ccc(C(F)(F)F)cc32)CC1 [Trifluoperazine, trifluoperazine] ... true (1)
OCCN1CCN(CC/C=C2/c3ccccc3Sc3ccc(Cl)cc32)CC1 [Zuclopenthixol, zuclopenthixol] ... false (0)

Note: attention shifts to another entry.
## Input Criterion: RMW strictly below -0.4. Is it met by OCCN1CCN(CC/C=C2/c3ccccc3Sc3ccc(C(F)(F)F)cc32)CC1 [Flupentixol, flupentixol] ?
## Output true (1)

###

- TEST SUMMARY: RP-TLC chromatographic parameter of lipophilicity (RMW), Soczewiński–Wachtmeister extrapolation
- Format: physicochemical
- Design: key: RM = log((1−Rf)/Rf), extrapolated via Soczewiński–Wachtmeister equation
- TEST CONDITIONS: RP-8F254 plates, acetone–TRIS buffer (pH 7.4)
ASSAY ENDPOINT: RMW
Answers are plain numbers.

Record excerpt, results attached:
OCCN1CCN(CC/C=C2/c3ccccc3Sc3ccc(Cl)cc32)CC1 ... 2.206
CN(C)CCCN1c2ccccc2Sc2ccc(C(F)(F)F)cc21 ... 2.690
OCCN1CCN(CC/C=C2/c3ccccc3Sc3ccc(C(F)(F)F)cc32)CC1 ... 2.702
CN1CCN(CCCN2c3ccccc3Sc3ccc(C(F)(F)F)cc32)CC1 ... 2.754

Now examine the next entry.
response.value for OCCN1CCN(CCCN2c3ccccc3Sc3ccc(C(F)(F)F)cc32)CC1 (field: RMW) = 2.591

###

- TEST SUMMARY: RP-TLC chromatographic parameter of lipophilicity (RMW), Soczewiński–Wachtmeister extrapolation
- Type: physicochemical
- Design: key: RM = log((1−Rf)/Rf), extrapolated via Soczewiński–Wachtmeister equation
- TEST CONDITIONS: RP-8F254 plates, acetonitrile–TRIS buffer (pH 7.4)
Please respond with reported RMW for every item in the list.
One number for each entry.

Known results for compounds:
OCCN1CCN(CCCN2c3ccccc3Sc3ccc(C(F)(F)F)cc32)CC1 [Fluphenazine, fluphenazine] ... −1.230
CN1CCN(CCCN2c3ccccc3Sc3ccc(C(F)(F)F)cc32)CC1 [Trifluoperazine, trifluoperazine] ... −1.023
OCCN1CCN(CC/C=C2/c3ccccc3Sc3ccc(C(F)(F)F)cc32)CC1 [Flupentixol, flupentixol] ... −1.165
OCCN1CCN(CC/C=C2/c3ccccc3Sc3ccc(Cl)cc32)CC1 [Zuclopenthixol, zuclopenthixol] ... −1.206

Okay, now this compound:
Input CN(C)CCCN1c2ccccc2Sc2ccc(C(F)(F)F)cc21 [Triflupromazine, triflupromazine] . Output RMW: −0.334

###

- TEST SUMMARY: RP-TLC chromatographic parameter of lipophilicity (RMW), Soczewiński–Wachtmeister extrapolation
- Format: physicochemical
- Set-up: key: RM = log((1−Rf)/Rf), extrapolated via Soczewiński–Wachtmeister equation
- TEST CONDITIONS: RP-18F254 plates, acetone–TRIS buffer (pH 7.4)
ASSAY ENDPOINT: RMW
Answers are plain numbers.

Some solved cases for reference:
OCCN1CCN(CC/C=C2/c3ccccc3Sc3ccc(Cl)cc32)CC1 ... 2.218
CN(C)CCCN1c2ccccc2Sc2ccc(C(F)(F)F)cc21 ... 2.718
OCCN1CCN(CC/C=C2/c3ccccc3Sc3ccc(C(F)(F)F)cc32)CC1 ... 2.762
OCCN1CCN(CCCN2c3ccccc3Sc3ccc(C(F)(F)F)cc32)CC1 ... 2.702

Could you now consider this next molecule?
Recorded RMW (molecule CN1CCN(CCCN2c3ccccc3Sc3ccc(C(F)(F)F)cc32)CC1 ): 2.714

###

- TEST SUMMARY: RP-TLC chromatographic parameter of lipophilicity (RMW), Soczewiński–Wachtmeister extrapolation
- Format: physicochemical
- Design: key: RM = log((1−Rf)/Rf), extrapolated via Soczewiński–Wachtmeister equation
- TEST CONDITIONS: RP-8F254 plates, 1,4-dioxane–TRIS buffer (pH 7.4)
Provide the reported RMW of each item.
Give bare numbers.

A selection of reference data follows.
CN(C)CCCN1c2ccccc2Sc2ccc(C(F)(F)F)cc21 ... 2.153
OCCN1CCN(CC/C=C2/c3ccccc3Sc3ccc(C(F)(F)F)cc32)CC1 ... 2.363
OCCN1CCN(CC/C=C2/c3ccccc3Sc3ccc(Cl)cc32)CC1 ... 1.981

# batch size: 2; output RMW per entry
1. CN1CCN(CCCN2c3ccccc3Sc3ccc(C(F)(F)F)cc32)CC1
2. OCCN1CCN(CCCN2c3ccccc3Sc3ccc(C(F)(F)F)cc32)CC1

## Output
2.547
2.340
